IC50 reference
test system: HepG2; experiment: Cytotoxicity against human HepG2 cells assessed as cell growth inhibition after 24 hrs by alamar blue assay; assay type: functional, cell-based; details: HepG2, 24 h

| INPUT SMILES | RESULT |
| --- | --- |
| COc1ccc2c(c1)NC(=O)/C2=C1\Nc2ccccc2C1=O | > 100 µM |
| O=C1Nc2ccccc2/C1=C1/Nc2ccccc2C1=O | > 100 µM |

Next:
IC50 for `COc1ccc2c(c1)/C(=C1/Nc3ccccc3C1=O)C(=O)N2` ?
> 100 µM
